tested on: d(CGCGAATTCGCG)2; test: DNA thermal melting (ΔTm); assay type: binding; settings: oligo = d(CGCGAATTCGCG)2
We use 10 as the dividing line for DNA Affinities ΔTm (oligo): on or above the line is class 1, below is class 0.

Completed entries (count: 4):
>>> assigned_label("N=C(N)c1ccc(-c2ccc(-c3ccc(C(=N)N)cc3)o2)cc1 [2,5-bis [4-amidinophenyl]furan, reference compound]")
"class 1"
>>> assigned_label("Cc1ccc(C(=N)Nc2ccc(-c3ccc(-c4ccc(NC(=N)c5ccc(C)cc5)cc4)o3)cc2)cc1.Cl.Cl")
"class 1"
>>> assigned_label("Cc1cc(N=Nc2ccccn2)cc(C)c1-c1ccc(-c2c(C)cc(N=Nc3ccccn3)cc2C)o1")
"class 0"
>>> assigned_label("COc1cc(NC(=N)N)ccc1-c1ccc(-c2ccc(NC(=N)N)cc2OC)o1.Cl.Cl")
"class 0"

Has c1cc(-c2ccc(-c3ccc(N=NC4CCCCC4)cc3)o2)ccc1N=NC1CCCCC1 a recorded DNA Affinities ΔTm (oligo) greater than or equal to 10?
class 1

Has N=C(Nc1ccc(-c2ccc(-c3ccc(NC(=N)c4ccccc4)cc3)s2)cc1)c1ccccc1 a recorded DNA Affinities ΔTm (oligo) greater than or equal to 10?
class 1

Has Cc1cc(NC(=N)N)cc(C)c1-c1ccc(-c2c(C)cc(NC(=N)N)cc2C)o1.Cl.Cl a recorded DNA Affinities ΔTm (oligo) greater than or equal to 10?
class 0

Has COc1cc(N=Nc2ccccn2)ccc1-c1ccc(-c2ccc(N=Nc3ccccn3)cc2OC)o1 a recorded DNA Affinities ΔTm (oligo) greater than or equal to 10?
class 0

---

system: d(CGCGAATTCGCG)2; experiment: DNA thermal melting (ΔTm); assay type: binding; settings: oligo = d(CGCGAATTCGCG)2
Please respond with 1 (yes) when measured DNA Affinities ΔTm (oligo) is strictly beneath 8, and with 0 (no) in all other cases.

Determine whether this compound shows DNA Affinities ΔTm (oligo) lower than 8 (ties excluded): Br.Br.CC(=N)Nc1ccc(-c2ccc(-c3ccc(NC(C)=N)cc3C)o2)c(C)c1
1 (yes)

Determine whether this compound shows DNA Affinities ΔTm (oligo) lower than 8 (ties excluded): Cl.Cl.N=C(N)Nc1ccc(-c2ccc(-c3ccc(NC(=N)N)cc3)o2)cc1
0 (no)

Determine whether this compound shows DNA Affinities ΔTm (oligo) lower than 8 (ties excluded): Cl.Cl.N=C(Nc1ccc(-c2ccc(-c3ccc(NC(=N)c4ccccc4)cc3)o2)cc1)c1ccccc1
0 (no)

Determine whether this compound shows DNA Affinities ΔTm (oligo) lower than 8 (ties excluded): Cc1cc(NC(=N)N)ccc1-c1ccc(-c2ccc(NC(=N)N)cc2C)o1.Cl.Cl
1 (yes)

Determine whether this compound shows DNA Affinities ΔTm (oligo) lower than 8 (ties excluded): Cc1ccc(N=Nc2ccc(-c3ccc(-c4ccc(N=Nc5ccc(C)cn5)cc4C)o3)c(C)c2)nc1
0 (no)

Determine whether this compound shows DNA Affinities ΔTm (oligo) lower than 8 (ties excluded): Br.Br.CC(=N)Nc1ccc(-c2ccc(-c3ccc(NC(C)=N)cc3)o2)cc1
1 (yes)

Determine whether this compound shows DNA Affinities ΔTm (oligo) lower than 8 (ties excluded): Cl.Cl.N=C(N)Nc1ccc(-c2ccc(-c3ccc(NC(=N)N)cc3Cl)o2)c(Cl)c1
1 (yes)
